DC50 values, listed per item
- MEASURED ON: PTPN2 (Homo sapiens)
- Construct: expressed in transfected cells; host or cells: 293T (293T.109 HiBiT-PTPN2 line; parental 293T WT from ATCC)
- Sequence (P17706 whole entry, species assumed): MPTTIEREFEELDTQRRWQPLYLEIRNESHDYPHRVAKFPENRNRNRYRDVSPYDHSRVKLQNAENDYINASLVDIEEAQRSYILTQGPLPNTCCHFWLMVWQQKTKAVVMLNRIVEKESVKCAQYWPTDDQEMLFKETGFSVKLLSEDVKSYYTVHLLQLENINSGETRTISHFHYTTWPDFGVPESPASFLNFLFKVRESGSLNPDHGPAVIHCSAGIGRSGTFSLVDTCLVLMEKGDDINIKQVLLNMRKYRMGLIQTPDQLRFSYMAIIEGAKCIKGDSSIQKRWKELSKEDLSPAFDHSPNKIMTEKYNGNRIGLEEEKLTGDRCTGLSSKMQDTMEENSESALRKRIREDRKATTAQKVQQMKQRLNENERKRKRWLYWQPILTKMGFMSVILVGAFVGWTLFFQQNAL
- PROTOCOL TEXT: HiBiT-Degradation 293T.109 PTPN2 (Nano-Glo HiBiT Lytic Assay)
- Assay type: cell-based
- CONDITION CONTEXT: 293T.109 (HiBiT-PTPN2) cells, 24.0 hours

Would you mind telling me what DC50 value was observed for CCn1c(=O)n(C2CCC(=O)NC2=O)c2ccc(C3CCN(CC(=O)Nc4ccc5c(F)c(N6CC(=O)NS6(=O)=O)c(O)cc5c4)CC3)cc21 (stereo not drawn) [Example 174] ?
10 to 50 nM

Would you mind telling me what DC50 value was observed for O=C1CCC(N2Cc3c(NCC(=O)N4CCC(C(=O)NCCOc5ccc6cc(O)c(N7CC(=O)NS7(=O)=O)c(F)c6c5)CC4)cccc3C2=O)C(=O)N1 (stereo not drawn) [Example 2] ?
200 to 1000 nM

Next up:
Would you mind telling me what DC50 value was observed for Cn1c(=O)n(C2CCC(=O)NC2=O)c2ccc(C3CCN(C4CC(C(=O)Nc5ccc6c(F)c(N7CC(=O)NS7(=O)=O)c(O)cc6c5)C4)CC3)cc21 (stereo not drawn) [Example 86] ?
10 to 50 nM
